- System: Trichophyton mentagrophytes
- measurement_protocol: Antifungal activity against Trichophyton mentagrophytes 445 after 72 hrs by microdilution method
- Format: functional
- condition_info: Trichophyton mentagrophytes, 445, 72 h
I'd appreciate it if you could supply MIC80 values for the items below.

Any idea what MIC80 was measured for O=C1O/C(=C\c2ccccc2)C=C1c1ccc(Br)cc1 ? > 125 µM

Would you mind doing COC(=O)/C=C1\C=C(c2ccc(Br)cc2)C(=O)O1 as well? > 125 µM

Try the compound O=C1O/C(=C\COC(=O)c2ccccc2)C=C1c1ccc(Br)cc1 > 500 µM
